TARGET_ENTITY: recombinant homotrimeric HA, A/swine/Ontario/01911-2/99 H4N6 (Influenza A virus A/swine/Ontario/01911-2/99 (H4N6))
ASSAY_TEXT: trimeric HA microarray, transfection set 2
STATED_CONDITIONS: remark: other sources report otherwise
METRIC: Trimeric HA Binding RLU (RLU)
Unit RLU implied. Number only.

Some binders with known Trimeric HA Binding RLU results, for comparison:
*Q* What does the data say about its Trimeric HA Binding RLU? Entry: TCN-527 (5086_C06) (antibody, V domains shown) VH: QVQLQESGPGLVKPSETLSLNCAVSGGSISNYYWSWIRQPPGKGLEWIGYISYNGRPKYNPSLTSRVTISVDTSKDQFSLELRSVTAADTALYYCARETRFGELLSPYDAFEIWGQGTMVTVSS VL: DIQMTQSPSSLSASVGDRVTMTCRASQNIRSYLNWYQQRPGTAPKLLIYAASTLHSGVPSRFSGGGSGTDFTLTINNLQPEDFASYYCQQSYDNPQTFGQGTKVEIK
*A* 30100

*Q* Can you share its Trimeric HA Binding RLU? I mean this binder: TCN-526 (5084_C17) (antibody, V domains shown) VH: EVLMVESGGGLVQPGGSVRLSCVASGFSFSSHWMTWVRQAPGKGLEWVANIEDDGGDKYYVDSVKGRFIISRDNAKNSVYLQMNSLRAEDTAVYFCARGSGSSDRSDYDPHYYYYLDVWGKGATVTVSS VL: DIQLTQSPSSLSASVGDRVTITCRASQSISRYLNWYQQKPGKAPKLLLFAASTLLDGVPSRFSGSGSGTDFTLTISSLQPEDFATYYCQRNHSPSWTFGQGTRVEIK
*A* 3490

// below: Trimeric HA Binding RLU requested for another binder
*Q* For the binder shown here, TCN-522 (3212_I12) (antibody, V domains shown) VH: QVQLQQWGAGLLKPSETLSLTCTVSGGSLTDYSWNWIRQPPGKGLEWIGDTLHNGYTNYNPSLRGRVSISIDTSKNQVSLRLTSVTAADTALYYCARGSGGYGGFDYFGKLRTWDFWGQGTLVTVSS VL: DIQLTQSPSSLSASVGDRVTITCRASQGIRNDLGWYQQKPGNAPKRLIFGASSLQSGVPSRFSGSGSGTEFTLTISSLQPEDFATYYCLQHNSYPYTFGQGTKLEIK , give the reported Trimeric HA Binding RLU.
*A* 1050
